Target: Adenosine receptors; A1 & A3 (Homo sapiens) (UniProt P30542+P0DMS8)
Sequence (P0DMS8 whole entry, looked up): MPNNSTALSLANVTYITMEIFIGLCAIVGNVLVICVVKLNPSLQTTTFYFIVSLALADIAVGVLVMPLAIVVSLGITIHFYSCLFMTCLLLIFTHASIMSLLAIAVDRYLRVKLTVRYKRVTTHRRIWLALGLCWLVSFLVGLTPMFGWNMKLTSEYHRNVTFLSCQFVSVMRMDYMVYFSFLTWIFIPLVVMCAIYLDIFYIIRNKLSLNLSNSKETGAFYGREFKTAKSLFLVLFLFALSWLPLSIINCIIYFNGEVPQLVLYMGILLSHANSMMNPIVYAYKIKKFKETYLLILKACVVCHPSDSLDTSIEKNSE
Sequence (P30542 whole entry, looked up): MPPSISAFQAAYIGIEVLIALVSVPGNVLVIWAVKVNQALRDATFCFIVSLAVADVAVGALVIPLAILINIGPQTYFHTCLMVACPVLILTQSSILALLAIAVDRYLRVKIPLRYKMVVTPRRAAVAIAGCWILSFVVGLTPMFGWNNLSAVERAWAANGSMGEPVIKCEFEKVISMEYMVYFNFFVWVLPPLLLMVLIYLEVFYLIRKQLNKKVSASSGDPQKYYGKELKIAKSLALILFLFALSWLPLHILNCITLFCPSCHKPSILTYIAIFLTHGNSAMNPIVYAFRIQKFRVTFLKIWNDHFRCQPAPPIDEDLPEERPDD
Assay: Selectivity ratio of Ki for human adenosine A1 receptor expressed in CHO cell membrane to Ki for human adenosine A3 receptor expressed in CHO cell membrane
Type: cell-based
value type: Ratio Ki

INSERT INTO assay_data (smiles_notation, value_type, value_reported) VALUES
  ('COc1ccc(CNc2nc3nn(C)cc3c3nc(-c4ccco4)nn23)cc1', 'Ratio Ki', 63.9),
  ('Cn1cc2c(nc(NCc3ccc(Cl)cc3)n3nc(-c4ccco4)nc23)n1', 'Ratio Ki', 162),
  ('Cn1cc2c(nc(NC3CCC3)n3nc(-c4ccco4)nc23)n1', 'Ratio Ki', 9.6),
  ('Cn1cc2c(nc(NCCCCO)n3nc(-c4ccco4)nc23)n1', 'Ratio Ki', 4.13),
  ('CN(Cc1ccccc1)c1nc2nn(C)cc2c2nc(-c3ccco3)nn12', 'Ratio Ki', 31.4),
  ('Cn1cc2c(nc(NCCCCCO)n3nc(-c4ccco4)nc23)n1', 'Ratio Ki', 3.86);

* * *

Entries and their pKi
Biological target: Adenosine receptor A2a (Homo sapiens)
Sequence (P29274 whole entry): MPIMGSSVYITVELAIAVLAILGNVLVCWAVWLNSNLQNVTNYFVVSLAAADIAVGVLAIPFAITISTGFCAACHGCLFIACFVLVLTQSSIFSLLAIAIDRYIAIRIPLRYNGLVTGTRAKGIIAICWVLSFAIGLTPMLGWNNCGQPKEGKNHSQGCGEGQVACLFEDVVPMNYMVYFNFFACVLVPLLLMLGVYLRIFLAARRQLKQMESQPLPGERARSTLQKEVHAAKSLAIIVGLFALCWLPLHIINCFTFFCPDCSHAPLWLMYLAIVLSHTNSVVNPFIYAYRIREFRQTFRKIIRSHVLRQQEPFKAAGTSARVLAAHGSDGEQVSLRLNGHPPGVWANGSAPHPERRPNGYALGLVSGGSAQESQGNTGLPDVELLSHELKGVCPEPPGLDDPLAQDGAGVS
pKi: −log10 of the molar value.
value type: pKi

INSERT INTO assay_data (smiles_notation, value_reported) VALUES
  ('Cn1cc2c(nc(NC3CCCCCCC3)n3nc(-c4ccco4)nc23)n1', 6.55),
  ('Cn1cc2c(nc(NCCCCCCO)n3nc(-c4ccco4)nc23)n1', 6.96),
  ('Cn1cc2c(nc(NC3CCCC3)n3nc(-c4ccco4)nc23)n1', 6.89);

* * *

Molecular target: Adenosine receptor A2b (Homo sapiens)
Sequence (P29275 whole entry): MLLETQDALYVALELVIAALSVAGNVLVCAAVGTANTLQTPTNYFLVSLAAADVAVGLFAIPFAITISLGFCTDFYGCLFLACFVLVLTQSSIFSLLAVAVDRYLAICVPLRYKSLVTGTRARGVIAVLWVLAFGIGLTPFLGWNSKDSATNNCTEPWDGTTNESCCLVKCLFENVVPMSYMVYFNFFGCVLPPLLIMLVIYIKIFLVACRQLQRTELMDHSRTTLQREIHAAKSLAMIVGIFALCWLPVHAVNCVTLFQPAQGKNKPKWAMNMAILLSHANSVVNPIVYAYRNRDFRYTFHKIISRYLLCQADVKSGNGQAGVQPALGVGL
Assay: Antagonist activity at human adenosine A2B receptor expressed in CHO cells assessed as NECA-induced adenylate cyclase activity
value type: Ki

INSERT INTO results (compound, value_type, value_reported) VALUES
  ('Cn1cc2c(nc(NCCCCCO)n3nc(-c4ccco4)nc23)n1', 'Ki', '> 10 µM'),
  ('CCCCN(C)c1nc2nn(C)cc2c2nc(-c3ccco3)nn12', 'Ki', '> 10 µM'),
  ('Cn1cc2c(nc(NCCOc3ccccc3)n3nc(-c4ccco4)nc23)n1', 'Ki', '7.5 µM'),
  ('CC(CCc1ccccc1)Nc1nc2nn(C)cc2c2nc(-c3ccco3)nn12 (stereo not given)', 'Ki', '5.26 µM'),
  ('CCN(CCO)c1nc2nn(C)cc2c2nc(-c3ccco3)nn12', 'Ki', '> 10 µM'),
  ('CCC(CO)Nc1nc2nn(C)cc2c2nc(-c3ccco3)nn12 (stereo not given)', 'Ki', '> 10 µM'),
  ('COCCNc1nc2nn(C)cc2c2nc(-c3ccco3)nn12', 'Ki', '> 10 µM'),
  ('Cn1cc2c(nc(NC34CC5CC(CC(C5)C3)C4)n3nc(-c4ccco4)nc23)n1', 'Ki', '> 10 µM'),
  ('CN(c1nc2nn(C)cc2c2nc(-c3ccco3)nn12)C1CCCCC1', 'Ki', '> 10 µM'),
  ('Cn1cc2c(nc(NC3CCCC3)n3nc(-c4ccco4)nc23)n1', 'Ki', '2.65 µM'),
  ('Cn1cc2c(nc(NCCCO)n3nc(-c4ccco4)nc23)n1', 'Ki', '9.3 µM'),
  ('Cn1cc2c(nc(NCCc3c[nH]c4ccccc34)n3nc(-c4ccco4)nc23)n1', 'Ki', '2.87 µM'),
  ('COc1ccc(CNc2nc3nn(C)cc3c3nc(-c4ccco4)nn23)cc1', 'Ki', '9.84 µM'),
  ('CCCCCC(C)Nc1nc2nn(C)cc2c2nc(-c3ccco3)nn12 (stereo not given)', 'Ki', '7.66 µM'),
  ('CCCCCN(CCCCC)c1nc2nn(C)cc2c2nc(-c3ccco3)nn12', 'Ki', '> 10 µM'),
  ('Cn1cc2c(nc(N3CCCC3)n3nc(-c4ccco4)nc23)n1', 'Ki', '> 10 µM'),
  ('CC[C@@H](C)Nc1nc2nn(C)cc2c2nc(-c3ccco3)nn12', 'Ki', '4.81 µM'),
  ('COc1nc2nn(C)cc2c2nc(-c3ccco3)nn12', 'Ki', '> 10 µM'),
  ('Cn1cc2c(nc(Cl)n3nc(-c4ccco4)nc23)n1', 'Ki', '> 10 µM'),
  ('CN1CCN(c2nc3nn(C)cc3c3nc(-c4ccco4)nn23)CC1', 'Ki', '> 10 µM'),
  ('CCCCC(CC)CNc1nc2nn(C)cc2c2nc(-c3ccco3)nn12 (stereo not given)', 'Ki', '> 10 µM'),
  ('Cn1cc2c(nc(N3CCCCC3)n3nc(-c4ccco4)nc23)n1', 'Ki', '> 10 µM'),
  ('Cn1cc2c(nc(NCCO)n3nc(-c4ccco4)nc23)n1', 'Ki', '7.47 µM'),
  ('CN(Cc1ccccc1)c1nc2nn(C)cc2c2nc(-c3ccco3)nn12', 'Ki', '> 10 µM'),
  ('Cn1cc2c(nc(NC3CCCCCCC3)n3nc(-c4ccco4)nc23)n1', 'Ki', '> 10 µM'),
  ('Cn1cc2c(nc(NCc3ccccc3)n3nc(-c4ccco4)nc23)n1', 'Ki', '3.33 µM'),
  ('Cn1cc2c(nc(NCc3ccc(C(F)(F)F)cc3)n3nc(-c4ccco4)nc23)n1', 'Ki', '> 3 µM'),
  ('Cc1ccc(CNc2nc3nn(C)cc3c3nc(-c4ccco4)nn23)cc1', 'Ki', '3.94 µM'),
  ('CCOc1nc2nn(C)cc2c2nc(-c3ccco3)nn12', 'Ki', '> 10 µM'),
  ('Cn1cc2c(n1)[nH]c(=O)n1nc(-c3ccco3)nc21', 'Ki', '> 10 µM'),
  ('Cn1cc2c(nc(N3CCOCC3)n3nc(-c4ccco4)nc23)n1', 'Ki', '> 10 µM'),
  ('Cn1cc2c(nc(NCCCCCCO)n3nc(-c4ccco4)nc23)n1', 'Ki', '> 10 µM'),
  ('CN(C)c1nc2nn(C)cc2c2nc(-c3ccco3)nn12', 'Ki', '> 10 µM'),
  ('Cn1cc2c(nc(NCCc3ccccc3)n3nc(-c4ccco4)nc23)n1', 'Ki', '2.79 µM'),
  ('Cn1cc2c(nc(NC(C)(C)CC(C)(C)C)n3nc(-c4ccco4)nc23)n1', 'Ki', '> 10 µM');
